Reference source for all entries: the supplement of paper PMC6757056

normalized RNA/DNA level with ligand (log10) reference
B1: library; a variant is named by its letters at N, in order (parent)
chain: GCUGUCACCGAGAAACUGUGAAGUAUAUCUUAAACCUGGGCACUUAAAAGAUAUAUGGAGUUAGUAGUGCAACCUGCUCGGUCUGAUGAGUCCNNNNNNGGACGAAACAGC

variants of: B1; assay: normalized RNA/DNA level with ligand (relative to sTRSVctl = 100) (log10 (% of sTRSVctl)); HEK293T; ligand: cyclic di-GMP (c-di-GMP-II aptamer); ligand concentration (+) RNA-Seq: 1 mM; higher = less ribozyme self-cleavage, higher mRNA level; settings: reporter: mCherry (pCS4076), ligand present: yes

Here is how some variants turned out for normalized RNA/DNA level with ligand (log10).
{"columns": ["mutant_name", "result"],
 "data": [
  ["CCCGCC", 1.92],
  ["CCGAUC", 1.73],
  ["AGGAUU", 1.73],
  ["GCUAAA", 1.67],
  ["UCAGUG", 1.83],
  ["CGCCGA", 1.81]
]}

Asked: Query (variant): "CAAGGU" ; field requested: normalized RNA/DNA level with ligand (log10)
Given back: 1.8

Asked: Query (variant): "ACCUAG" ; field requested: normalized RNA/DNA level with ligand (log10)
Given back: 1.78

Asked: Query (variant): "ACGCCA" ; field requested: normalized RNA/DNA level with ligand (log10)
Given back: 1.87

Asked: Query (variant): "GUCAUG" ; field requested: normalized RNA/DNA level with ligand (log10)
Given back: 1.75

Asked: Query (variant): "AGCCAA" ; field requested: normalized RNA/DNA level with ligand (log10)
Given back: 1.73

Asked: Query (variant): "AUUGGU" ; field requested: normalized RNA/DNA level with ligand (log10)
Given back: 1.78

Asked: Query (variant): "GCGCUC" ; field requested: normalized RNA/DNA level with ligand (log10)
Given back: 1.62

Asked: Query (variant): "CAGUUA" ; field requested: normalized RNA/DNA level with ligand (log10)
Given back: 1.42

Asked: Query (variant): "UAAACU" ; field requested: normalized RNA/DNA level with ligand (log10)
Given back: 1.85

Asked: Query (variant): "UCUCUC" ; field requested: normalized RNA/DNA level with ligand (log10)
Given back: 1.9

Asked: Query (variant): "CUUUCU" ; field requested: normalized RNA/DNA level with ligand (log10)
Given back: 1.77

Asked: Query (variant): "UACUAA" ; field requested: normalized RNA/DNA level with ligand (log10)
Given back: 1.81

Asked: Query (variant): "UGAUCU" ; field requested: normalized RNA/DNA level with ligand (log10)
Given back: 1.86

Asked: Query (variant): "AAAUGU" ; field requested: normalized RNA/DNA level with ligand (log10)
Given back: 1.78

Asked: Query (variant): "GAAAUC" ; field requested: normalized RNA/DNA level with ligand (log10)
Given back: 1.81
